- MEASUREMENT_TARGET: D816V Kit (Homo sapiens, UniProt P10721, D816V)
- Sequence (P10721 26-976 D816V): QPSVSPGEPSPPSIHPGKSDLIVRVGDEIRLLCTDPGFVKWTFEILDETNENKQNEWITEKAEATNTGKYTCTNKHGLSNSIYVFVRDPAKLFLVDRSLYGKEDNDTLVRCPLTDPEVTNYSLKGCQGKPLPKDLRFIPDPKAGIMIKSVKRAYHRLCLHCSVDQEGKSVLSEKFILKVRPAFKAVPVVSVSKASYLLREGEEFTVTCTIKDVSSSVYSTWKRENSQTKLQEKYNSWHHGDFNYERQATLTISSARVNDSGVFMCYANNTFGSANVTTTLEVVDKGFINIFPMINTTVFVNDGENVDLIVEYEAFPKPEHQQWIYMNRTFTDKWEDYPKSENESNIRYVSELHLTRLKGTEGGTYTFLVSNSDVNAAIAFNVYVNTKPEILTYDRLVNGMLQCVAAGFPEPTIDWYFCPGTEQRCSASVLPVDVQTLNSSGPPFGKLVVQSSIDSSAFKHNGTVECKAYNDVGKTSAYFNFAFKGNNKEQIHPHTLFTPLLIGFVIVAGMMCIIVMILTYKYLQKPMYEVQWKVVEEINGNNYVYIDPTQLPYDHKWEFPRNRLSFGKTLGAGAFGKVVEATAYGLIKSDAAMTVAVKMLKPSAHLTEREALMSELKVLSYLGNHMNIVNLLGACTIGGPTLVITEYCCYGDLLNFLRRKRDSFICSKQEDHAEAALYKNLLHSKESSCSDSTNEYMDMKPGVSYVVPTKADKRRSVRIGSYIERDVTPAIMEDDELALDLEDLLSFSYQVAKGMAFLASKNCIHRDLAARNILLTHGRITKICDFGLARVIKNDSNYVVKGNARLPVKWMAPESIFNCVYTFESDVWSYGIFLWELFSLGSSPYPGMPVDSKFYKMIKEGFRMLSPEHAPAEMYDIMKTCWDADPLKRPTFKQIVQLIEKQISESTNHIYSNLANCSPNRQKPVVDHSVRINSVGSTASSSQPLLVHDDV
- PROCEDURE_TEXT: Kit D816V assay at Km (Caliper electrophoretic mobility shift)
- EXPERIMENTAL_PARAMETERS: 15 uM ATP, 25 C, 90 minutes
pIC50: −log10 of the molar value.
QUANTITY_KIND: pIC50

COMPOUND | QUANTITY_KIND | VALUE_REPORTED
CC(C)(c1ccccc1)c1cnc(N2CCN(c3ncnc(Nc4ccc([C@H](O)CO)cc4)n3)CC2)nc1 | pIC50 | > 9.00
OCC(O)Cn1cc(Nc2ncnc(N3CCN(c4ncc(Cc5ccccc5)cn4)CC3)n2)cn1 (stereo not drawn) | pIC50 | > 9.00
O=S1(=O)Cc2ccc(Nc3ncnc(N4CCN(c5ncc(Cc6ccccc6)cn5)CC4)n3)cc2CN1 | pIC50 | > 9.00
C[C@H](O)CNc1ccc(Nc2ncnc(N3CCN(c4ncc(Sc5ccccc5F)cn4)CC3)n2)cc1 | pIC50 | 8.00 to 9.00
c1ccc(Cc2cnc(N3CCN(c4ncnc(Nc5ccc6c(c5)CNCC6)n4)C(Cc4ccccc4)C3)nc2)cc1 (stereo not drawn) | pIC50 | 7.00 to 8.00

State the recorded pIC50 for every item in the following list.
1. c1cnc(N2CCN(c3ncnc(Nc4cnn(C[C@@H]5CNCCO5)c4)n3)CC2)nc1
2. c1ccc(Nc2cnc(N3CCN(c4ncnc(Nc5cnn(C[C@@H]6CNCCO6)c5)n4)CC3)nc2)cc1
3. FC(F)(c1ccccc1)c1cnc(N2CCN(c3ncnc(Nc4cnn(C[C@@H]5CNCCO5)c4)n3)CC2)nc1
4. c1cnc(N2CCN(c3ncnc(Nc4ccc5c(c4)CNCC5)n3)CC2)nc1

1: < 7.00; 2: 8.00 to 9.00; 3: 8.00 to 9.00; 4: 8.00 to 9.00

* * *

- MEASUREMENT_TARGET: D816V Kit (Homo sapiens, UniProt P10721, D816V)
- PROCEDURE_TEXT: Kit D816V assay at Km (Caliper electrophoretic mobility shift)
- EXPERIMENTAL_PARAMETERS: 15 uM ATP, 25 C, 90 minutes
QUANTITY_KIND: IC50

Some solved entries appear below for comparison.
MOLECULE | IC50
C[C@@H](O)CN1CCc2ccc(Nc3ncnc(N4CCN(c5ncc(Cc6ccccc6)cn5)CC4)n3)cc2C1 [Compound 220] | < 1 nM
C[C@H](O)Cn1cc(Nc2ncnc(N3CCN(c4ncc(Sc5ccc(F)cc5)cn4)CC3)n2)cn1 [Compound 101] | < 1 nM
FC(F)(F)CN1CCc2ccc(Nc3ncnc(N4CCN(c5ncc(Cc6ccccc6)cn5)CC4)n3)cc2C1 [Compound 268] | 1.01 to 10 nM
CN1CCC[C@H](Oc2ccc(Nc3ncnc(N4CCN(c5ncc(Cc6ccccc6)cn5)CC4)n3)cc2)C1 [Compound 217] | < 1 nM
Fc1ccccc1Oc1cnc(N2CCN(c3ncnc(Nc4cnn(C[C@@H]5CNCCO5)c4)n3)CC2)nc1 [Compound 203] | 1.01 to 10 nM

State the recorded IC50 for every item in the following list.
1. Nc1nc(N2CCN(c3ncnc(NC4CC4)n3)CC2)ncc1Cc1ccccc1 [Compound 3]
2. CN(C)[C@H]1CCN(Cc2cccc(Nc3ncnc(N4CCN(c5ncc(Cc6ccccc6)cn5)CC4)n3)c2)C1 [Compound 260]
3. c1ccc(Cc2cnc(N3CCN(c4ncnc(Nc5cn[nH]c5)n4)CC3)nc2)cc1 [Compound 4]

["> 100 nM", "< 1 nM", "< 1 nM"]

* * *

- MEASUREMENT_TARGET: D816V Kit (Homo sapiens, UniProt P10721, D816V)
- PROCEDURE_TEXT: Kit D816V assay at Km (Caliper electrophoretic mobility shift)
- EXPERIMENTAL_PARAMETERS: 15 uM ATP, 25 C, 90 minutes
QUANTITY_KIND: IC50

MOLECULE | IC50
CN1CCC[C@@H](Oc2ccc(Nc3ncnc(N4CCN(c5ncc(Cc6ccccc6)cn5)CC4)n3)cc2)C1 | < 1 nM
c1ccc(Cc2cnc(N3CCN(c4ncnc(Nc5cnn([C@@H]6CCNC6)c5)n4)CC3)nc2)cc1 (single isomer, unassigned) | < 1 nM
Cc1nn(C[C@H](C)O)cc1Nc1ncnc(N2CCN(c3ncc(Sc4ccc(F)cc4)cn3)CC2)n1 | < 1 nM
CS(=O)(=O)c1ccc(Nc2ncnc(N3CCN(C(=O)Nc4ccc(C#N)cc4)CC3)n2)cc1 | 10 to 100 nM

Now let's try a different one.
Which IC50 value belongs to Clc1ncc(N2CCN(c3ncnc(Nc4cnn(CC5CNCCO5)c4)n3)CC2)nn1 (centres unmarked) ?
> 100 nM

* * *

- MEASUREMENT_TARGET: PDGFRA D842V (Homo sapiens, UniProt P16234, D842V)
- Sequence (P16234 24-1089 D842V): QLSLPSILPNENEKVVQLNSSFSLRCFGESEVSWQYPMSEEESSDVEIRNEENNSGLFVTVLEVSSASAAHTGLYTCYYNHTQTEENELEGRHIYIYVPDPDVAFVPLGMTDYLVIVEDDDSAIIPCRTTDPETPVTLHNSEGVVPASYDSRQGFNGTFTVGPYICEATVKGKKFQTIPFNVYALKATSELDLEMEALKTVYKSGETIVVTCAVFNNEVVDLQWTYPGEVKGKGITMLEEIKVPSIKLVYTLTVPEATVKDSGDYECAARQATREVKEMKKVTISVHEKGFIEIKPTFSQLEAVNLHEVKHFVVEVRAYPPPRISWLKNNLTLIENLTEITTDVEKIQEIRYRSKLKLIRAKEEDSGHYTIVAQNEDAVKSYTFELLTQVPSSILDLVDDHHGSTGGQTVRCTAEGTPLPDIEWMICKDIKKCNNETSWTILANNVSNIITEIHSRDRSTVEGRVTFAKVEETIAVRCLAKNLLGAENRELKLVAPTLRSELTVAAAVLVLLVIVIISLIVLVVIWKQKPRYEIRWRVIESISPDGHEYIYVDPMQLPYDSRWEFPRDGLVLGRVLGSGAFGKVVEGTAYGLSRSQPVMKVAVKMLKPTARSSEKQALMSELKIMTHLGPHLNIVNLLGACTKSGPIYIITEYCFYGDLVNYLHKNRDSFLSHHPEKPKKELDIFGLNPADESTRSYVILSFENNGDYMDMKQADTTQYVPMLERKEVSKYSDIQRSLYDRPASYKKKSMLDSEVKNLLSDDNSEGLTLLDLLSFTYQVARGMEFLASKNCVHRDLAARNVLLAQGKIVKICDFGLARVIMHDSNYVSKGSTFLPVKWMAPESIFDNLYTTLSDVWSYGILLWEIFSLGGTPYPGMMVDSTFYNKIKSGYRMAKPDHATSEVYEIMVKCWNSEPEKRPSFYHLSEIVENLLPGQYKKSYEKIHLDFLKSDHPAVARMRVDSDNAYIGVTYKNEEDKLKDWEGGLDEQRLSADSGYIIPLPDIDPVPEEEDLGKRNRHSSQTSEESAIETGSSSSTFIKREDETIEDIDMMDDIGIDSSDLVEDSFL
- PROCEDURE_TEXT: PDGFRA D842V assay at Km (Caliper electrophoretic mobility shift)
- EXPERIMENTAL_PARAMETERS: 15 uM ATP, 25 C, 90 minutes; read-out: PDFGRA D842V
QUANTITY_KIND: IC50

State the recorded IC50 for every item in the following list.
1. CN(C)C1CCN(Cc2cccc(Nc3ncnc(N4CCN(c5ncc(Cc6ccccc6)cn5)CC4)n3)c2)C1 (stereo not shown) [Compound 259]
2. c1ccc(Cc2cnc(N3CCN(c4ncnc(Nc5cccc(O[C@@H]6CCNC6)c5)n4)CC3)nc2)cc1 [Compound 106]

["< 1 nM", "1.01 to 10 nM"]

* * *

- MEASUREMENT_TARGET: D816V Kit (Homo sapiens, UniProt P10721, D816V)
- Construct: purchased Carna Bioscience 08-156
- PROCEDURE_TEXT: Kit D816V assay at Km (Caliper electrophoretic mobility shift)
- Format: biochemical
- EXPERIMENTAL_PARAMETERS: 15 uM ATP, 25 C, 90 minutes
QUANTITY_KIND: IC50

Some solved entries appear below for comparison.
COMPOUND | MEASUREMENT_TARGET | IC50
c1ccc(Cc2cnc(N3CCN(c4ncnc(Nc5cnn(CC6CCNC6)c5)n4)CC3)nc2)cc1 (stereo not drawn) | D816V Kit (Homo sapiens, UniProt P10721, D816V) | < 1 nM
OC1CCC(NCc2cccc(Nc3ncnc(N4CCN(c5ncc(Cc6ccccc6)cn5)CC4)n3)c2)C1 (stereo not drawn) | D816V Kit (Homo sapiens, UniProt P10721, D816V) | < 1 nM
c1ccc(Cc2cnc(N3CCN(c4ncnc(NCCCN5CCOCC5)n4)CC3)nc2)cc1 | D816V Kit (Homo sapiens, UniProt P10721, D816V) | > 100 nM
Cc1c(Nc2ncnc(N3CCN(c4ncc([C@](C)(O)c5ccc(F)cc5)cn4)CC3)n2)cnn1C[C@@H]1CNCCO1 | D816V Kit (Homo sapiens, UniProt P10721, D816V) | < 1 nM
Fc1cccc(Cc2cnc(N3CCN(c4ncnc(Nc5ccc6c(c5)CNCC6)n4)CC3)nc2)c1 | D816V Kit (Homo sapiens, UniProt P10721, D816V) | 1.01 to 10 nM

Which IC50 value belongs to `FC1(Cn2cc(Nc3ncnc(N4CCN(c5ncc(Cc6ccccc6)cn5)CC4)n3)cn2)CCNCC1` ?
< 1 nM

* * *

- MEASUREMENT_TARGET: Kit D816V (HMC1.2 cells, Kit V560G and D816V) (Homo sapiens, UniProt P10721, D816V/V560G)
- Construct: endogenous in cells
- Sequence (P10721 26-976 V560G/D816V): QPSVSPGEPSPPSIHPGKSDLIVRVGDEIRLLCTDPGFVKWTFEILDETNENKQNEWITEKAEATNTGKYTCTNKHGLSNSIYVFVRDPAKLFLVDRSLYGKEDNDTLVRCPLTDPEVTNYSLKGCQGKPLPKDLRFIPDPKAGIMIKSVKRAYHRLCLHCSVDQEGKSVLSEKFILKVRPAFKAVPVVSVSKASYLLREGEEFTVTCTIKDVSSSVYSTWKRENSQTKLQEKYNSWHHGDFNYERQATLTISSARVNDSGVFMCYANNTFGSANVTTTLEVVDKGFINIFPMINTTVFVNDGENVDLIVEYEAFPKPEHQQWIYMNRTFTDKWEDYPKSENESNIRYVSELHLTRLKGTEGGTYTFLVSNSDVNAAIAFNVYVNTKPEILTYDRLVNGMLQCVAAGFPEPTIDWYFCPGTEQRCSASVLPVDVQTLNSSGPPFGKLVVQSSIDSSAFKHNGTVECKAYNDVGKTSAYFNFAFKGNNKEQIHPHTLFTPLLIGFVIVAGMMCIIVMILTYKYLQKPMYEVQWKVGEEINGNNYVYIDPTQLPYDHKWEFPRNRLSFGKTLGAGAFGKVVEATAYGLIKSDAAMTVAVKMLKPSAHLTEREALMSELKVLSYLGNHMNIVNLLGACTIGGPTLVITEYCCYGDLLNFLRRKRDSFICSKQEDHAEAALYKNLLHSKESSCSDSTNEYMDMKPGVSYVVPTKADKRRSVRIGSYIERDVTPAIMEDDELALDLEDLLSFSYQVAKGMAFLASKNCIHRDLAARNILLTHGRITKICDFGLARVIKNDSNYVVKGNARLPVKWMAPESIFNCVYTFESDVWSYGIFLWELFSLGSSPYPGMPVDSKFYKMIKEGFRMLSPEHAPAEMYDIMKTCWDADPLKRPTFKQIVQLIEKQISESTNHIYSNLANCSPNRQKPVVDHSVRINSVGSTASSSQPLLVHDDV
- PROCEDURE_TEXT: HMC1.2 autophosphorylation assay (AlphaLISA, phospho-Y719 c-Kit)
- EXPERIMENTAL_PARAMETERS: Kit autophosphorylation at tyrosine 719, 90 minutes, read-out: Cellular Activity
QUANTITY_KIND: IC50

Some solved entries appear below for comparison.
COMPOUND | MEASUREMENT_TARGET | QUANTITY_KIND | VALUE_REPORTED
Cc1c(Nc2ncnc(N3CCN(c4ncc(Sc5ccccc5F)cn4)CC3)n2)cnn1C[C@H](C)O | Kit D816V (HMC1.2 cells, Kit V560G and D816V) (Homo sapiens, UniProt P10721, D816V/V560G) | IC50 | 0.01 to 0.1 µM
C[C@](N)(c1ccc(F)cc1)c1cnc(N2CCN(c3ncnc(Nc4ccccc4)n3)CC2)nc1 | Kit D816V (HMC1.2 cells, Kit V560G and D816V) (Homo sapiens, UniProt P10721, D816V/V560G) | IC50 | 0.01 to 0.1 µM
c1ccc(Cc2cnc(N3CCN(c4ncnc(Nc5ccc(O[C@H]6CCCNC6)nc5)n4)CC3)nc2)cc1 | Kit D816V (HMC1.2 cells, Kit V560G and D816V) (Homo sapiens, UniProt P10721, D816V/V560G) | IC50 | 0.01 to 0.1 µM

State the recorded IC50 for every item in the following list.
1. OCc1ccc(Nc2ncnc(N3CCN(c4ncc(Cc5ccccc5)cn4)CC3)n2)cc1
2. c1cnc(N2CCN(c3ncnc(Nc4cnn(C[C@@H]5CNCCO5)c4)n3)CC2)nc1

1: 0.1 to 1 µM; 2: > 10 µM

Reference source for all entries: patent US9334263B2
